Measured target: human-liver type GST-GK (Homo sapiens, UniProt P35557)
Sequence (P35557 1-466 isoform P35557-2): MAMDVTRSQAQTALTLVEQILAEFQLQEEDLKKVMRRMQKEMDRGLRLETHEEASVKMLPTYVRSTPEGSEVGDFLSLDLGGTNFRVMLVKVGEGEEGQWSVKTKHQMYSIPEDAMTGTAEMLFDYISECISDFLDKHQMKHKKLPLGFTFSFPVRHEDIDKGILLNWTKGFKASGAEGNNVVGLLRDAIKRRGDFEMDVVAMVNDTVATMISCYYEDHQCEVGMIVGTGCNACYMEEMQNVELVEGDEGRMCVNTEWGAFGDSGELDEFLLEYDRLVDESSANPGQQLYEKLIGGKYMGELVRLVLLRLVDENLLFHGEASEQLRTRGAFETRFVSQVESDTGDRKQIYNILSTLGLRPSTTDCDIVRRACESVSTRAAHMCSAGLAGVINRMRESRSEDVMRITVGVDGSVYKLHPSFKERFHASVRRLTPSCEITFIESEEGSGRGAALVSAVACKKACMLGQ
Procedure details: Glucokinase activation effect (G6PDH-coupled NADPH assay)
Setup conditions: glucose 5 mM, ATP 5 mM, 30° C., NADPH monitored at 340 nm for 10 minutes, compound 0.01 to 100 μM (5% DMSO)
pEC50: −log10 of the molar value.
Is pEC50 at least 7? Then condition met. If not, condition not met.

| Input smiles | Measured target | Class assignment |
| --- | --- | --- |
| O=C(Nc1ncc(F)s1)/C(=N/N1CCOCC1)c1ccc(S(=O)(=O)C2CC2)cc1 | human-liver type GST-GK (Homo sapiens, UniProt P35557) | condition not met |
| CN1CCN(S(=O)(=O)c2cnc(NC(=O)/C(=N/N3CCCC3)c3ccc(S(=O)(=O)C4CC4)cc3)s2)CC1 | human-liver type GST-GK (Homo sapiens, UniProt P35557) | condition not met |
| O=C(Nc1ncc(Br)s1)/C(=N/N1CCCC1)c1ccc(S(=O)(=O)C2CC2)cc1 | human-liver type GST-GK (Homo sapiens, UniProt P35557) | condition met |

---

Measured target: human-liver type GST-GK (Homo sapiens)
Procedure details: Glucokinase activation effect (G6PDH-coupled NADPH assay)
Setup conditions: glucose 5 mM, ATP 5 mM, 30° C., NADPH monitored at 340 nm for 10 minutes, compound 0.01 to 100 μM (5% DMSO)

| Input smiles | Units of measure | EC50 |
| --- | --- | --- |
| CN(C)S(=O)(=O)c1cnc(NC(=O)/C(=N/N2CCCC2)c2ccc(S(=O)(=O)C3CC3)cc2)s1 | nM | 120 |
| O=C(Nc1ncc(Cl)s1)/C(=N/N1CCOCC1)c1ccc(S(=O)(=O)C2CC2)cc1 | nM | 110 |
| COc1ccc2nc(NC(=O)/C(=N/N3CCCC3)c3ccc(S(=O)(=O)C4CC4)cc3)sc2n1 | nM | 70 |
